# Target: CYP2C8 (Homo sapiens)
# Construct: co-incubated with human liver microsomes; from tissue; host or cells: human liver microsomes
# Sequence (P10632 whole entry): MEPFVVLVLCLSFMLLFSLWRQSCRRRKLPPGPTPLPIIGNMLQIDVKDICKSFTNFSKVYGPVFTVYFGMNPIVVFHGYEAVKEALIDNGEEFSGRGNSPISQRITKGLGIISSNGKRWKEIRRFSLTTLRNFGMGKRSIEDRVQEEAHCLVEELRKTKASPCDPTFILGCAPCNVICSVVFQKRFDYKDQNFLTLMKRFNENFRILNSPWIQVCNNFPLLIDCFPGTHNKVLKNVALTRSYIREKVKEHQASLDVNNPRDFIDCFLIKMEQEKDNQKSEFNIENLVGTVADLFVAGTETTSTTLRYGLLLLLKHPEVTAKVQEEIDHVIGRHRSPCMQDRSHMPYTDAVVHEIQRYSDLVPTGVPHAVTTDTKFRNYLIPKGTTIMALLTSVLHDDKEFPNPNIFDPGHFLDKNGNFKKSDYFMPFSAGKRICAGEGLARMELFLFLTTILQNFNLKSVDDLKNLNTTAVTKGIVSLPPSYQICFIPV
# Assay info: CYP inhibition assay in human liver microsomes
# Type: in vitro ADME

{"columns": ["Chemical string", "IC50"],
 "data": [
  ["CC(C)(c1ccc(-c2ccc3oc(-c4ccnc(P(C)(C)=O)n4)c(N)c3c2)cc1)c1cc(Cl)c(OCCCl)c(C#N)c1", "> 10 µM"]
]}

* * *

# Assay info: Mouse pharmacokinetic test
# Type: in vivo, ICR mice
# Run conditions: plasma, po, 30 mg/kg, PO-30mpk, read-out: Tmax

{"columns": ["Chemical string", "Readout units", "Tmax"],
 "data": [
  ["CC(C)(c1ccc(-c2ccc(/C=C/c3ccnc(P(C)(C)=O)n3)cc2)cc1)c1cc(Cl)c(OCCCl)c(C#N)c1", "h", 4],
  ["CC(C)(c1ccc(-c2ccc(OCC3CN(c4ccnc(P(C)(C)=O)n4)C3)cc2)cc1)c1cc(Cl)c(OCCCl)c(C#N)c1", "h", 4],
  ["CC(C)(c1ccc(-c2ncc(OCc3ccc(-c4cnc(P(C)(C)=O)nc4)cc3)cn2)cc1)c1cc(Cl)c(OCCCl)c(C#N)c1", "h", 4]
]}
